The compounds listed here are annotated with their pIC50.
- measured on: FAAH (Rattus norvegicus)
- Sequence (P97612 1-579): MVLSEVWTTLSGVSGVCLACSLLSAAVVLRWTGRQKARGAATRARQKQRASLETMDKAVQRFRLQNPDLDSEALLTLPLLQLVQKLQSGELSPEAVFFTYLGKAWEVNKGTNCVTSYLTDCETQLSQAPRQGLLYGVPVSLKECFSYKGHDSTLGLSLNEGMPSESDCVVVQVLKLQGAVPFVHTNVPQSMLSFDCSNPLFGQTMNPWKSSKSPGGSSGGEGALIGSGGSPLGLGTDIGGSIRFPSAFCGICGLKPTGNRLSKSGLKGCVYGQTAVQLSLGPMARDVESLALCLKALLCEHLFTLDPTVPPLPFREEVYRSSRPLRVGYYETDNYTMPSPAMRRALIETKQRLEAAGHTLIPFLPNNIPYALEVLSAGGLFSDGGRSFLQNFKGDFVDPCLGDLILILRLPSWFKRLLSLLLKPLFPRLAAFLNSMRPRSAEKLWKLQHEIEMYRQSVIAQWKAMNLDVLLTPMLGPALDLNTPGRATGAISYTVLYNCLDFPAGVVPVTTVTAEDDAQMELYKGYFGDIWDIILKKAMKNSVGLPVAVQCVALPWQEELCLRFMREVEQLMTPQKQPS
pIC50: −log10 of the molar value.
value type: pIC50

[[record]]
compound = "O=C(Nc1cccnn1)N1CCN(C2CCOc3ccc(Oc4ccc(C(F)(F)F)cn4)cc32)CC1 (centres unmarked)"
result_value = "6.00 to 7.00"

[[record]]
compound = "O=C(Nc1cccnc1)N1CCN(C2CCOc3cc(C(F)(F)F)ccc32)CC1 (centres unmarked)"
result_value = "> 7.00"

[[record]]
compound = "CC1(C)CC(N2CCN(C(=O)Nc3cccnn3)CC2)c2ccc(C(F)(F)F)cc2O1 (centres unmarked)"
result_value = "6.00 to 7.00"

[[record]]
compound = "O=C(Nc1cccnc1)N1CCN(C2CCOc3c2ccc(F)c3F)CC1 (centres unmarked)"
result_value = "> 7.00"

[[record]]
compound = "O=C(Nc1cccnn1)N1CCN(C2CCCOc3cc(C(F)(F)F)ccc32)CC1 (centres unmarked)"
result_value = "6.00 to 7.00"


----------
- measured on: FAAH (Homo sapiens, UniProt O00519)
- Construct: the U-937 microsomal fraction (final concentration of 6 μg/well) prepared in (1); endogenous in cells
- Sequence (O00519 whole entry): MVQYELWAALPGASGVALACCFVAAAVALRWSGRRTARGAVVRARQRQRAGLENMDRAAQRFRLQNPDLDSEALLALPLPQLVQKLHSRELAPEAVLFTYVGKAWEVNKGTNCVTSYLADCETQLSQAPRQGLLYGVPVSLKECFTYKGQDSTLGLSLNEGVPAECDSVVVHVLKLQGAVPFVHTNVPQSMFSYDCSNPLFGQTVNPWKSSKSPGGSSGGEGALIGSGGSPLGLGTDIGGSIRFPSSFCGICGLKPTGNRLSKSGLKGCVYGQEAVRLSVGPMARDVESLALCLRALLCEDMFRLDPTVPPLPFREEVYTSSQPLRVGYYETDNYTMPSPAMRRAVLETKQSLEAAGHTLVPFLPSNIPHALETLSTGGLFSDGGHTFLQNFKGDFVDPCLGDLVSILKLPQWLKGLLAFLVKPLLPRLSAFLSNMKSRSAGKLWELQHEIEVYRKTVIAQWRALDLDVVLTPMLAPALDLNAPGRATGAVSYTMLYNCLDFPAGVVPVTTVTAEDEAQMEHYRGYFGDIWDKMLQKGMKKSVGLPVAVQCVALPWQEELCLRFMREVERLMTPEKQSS
- assay protocol: In vitro FAAH inhibitory activity using U-937 microsomal fraction (AAMCA substrate, fluorescence)
- particulars: 6 μg/well, 120 min incubation at room temperature, read-out: FAAH Inhibitory Activity IC50 U-937 microsome
pIC50: −log10 of the molar value.
value type: pIC50

[[record]]
compound = "O=C(Nc1ccccc1)N1CCC(c2noc3cc(F)ccc23)CC1 [Example 1]"
measured_on = "FAAH (Homo sapiens, UniProt O00519)"
result_value = "6.00 to 7.00"

[[record]]
compound = "O=C(Nc1cccnc1)N1CCN(C2CCOc3cc(C(F)(F)F)ccc32)CC1 (stereo not drawn) [Example 17]"
measured_on = "FAAH (Homo sapiens, UniProt O00519)"
result_value = "> 7.00"

[[record]]
compound = "O=C(Nc1ccccc1)N1CCN(C2CCOc3cc(C(F)(F)F)ccc32)C(=O)C1 (stereo not drawn) [Example 15]"
measured_on = "FAAH (Homo sapiens, UniProt O00519)"
result_value = "6.00 to 7.00"

[[record]]
compound = "O=C(Nc1cccnn1)N1CCN(C2CCOc3ccc(Oc4ccc(C(F)(F)F)cn4)cc32)CC1 (stereo not drawn) [Example 5]"
measured_on = "FAAH (Homo sapiens, UniProt O00519)"
result_value = "6.00 to 7.00"

[[record]]
compound = "O=C(Nc1cccnn1)N1CCC(N2CCOc3cc(C(F)(F)F)ccc32)CC1 [Example 24]"
measured_on = "FAAH (Homo sapiens, UniProt O00519)"
result_value = "> 7.00"

[[record]]
compound = "Cc1ccc(NC(=O)N2CCN(C3CCOc4cc(C(F)(F)F)ccc43)CC2)cn1 (stereo not drawn) [Example 18]"
measured_on = "FAAH (Homo sapiens, UniProt O00519)"
result_value = "> 7.00"

[[record]]
compound = "CC1(C)CC(N2CCN(C(=O)Nc3cccnn3)CC2)c2ccc(C(F)(F)F)cc2O1 (stereo not drawn) [Example 9]"
measured_on = "FAAH (Homo sapiens, UniProt O00519)"
result_value = "< 6.00"

[[record]]
compound = "O=C(Nc1cccnc1)N1CCN(C2CCOc3c2ccc(F)c3F)CC1 (stereo not drawn) [Example 35]"
measured_on = "FAAH (Homo sapiens, UniProt O00519)"
result_value = "> 7.00"

[[record]]
compound = "O=C(Nc1cccnn1)N1CCN(C2CCCOc3cc(C(F)(F)F)ccc32)CC1 (stereo not drawn) [Example 10]"
measured_on = "FAAH (Homo sapiens, UniProt O00519)"
result_value = "6.00 to 7.00"

